Provenance of the data: the supplement of paper PMC10567573

Listing: protein stability index of selected variants
B1: PPFIA4 (parent)
chain: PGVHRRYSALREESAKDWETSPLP

- Variants of: B1
- PROCEDURE_DETAILS: protein stability index of a GFP-peptide fusion (GPS, HEK-293T) (PSI 1-6); higher = more stable;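 note: lentivirally expressed fusions sorted by FACS into six bins by GFP to DsRed ratio, PSI derived from sequencing read proportions per bin multiplied by bin number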
- DETAILS: c terminus: a fixed tail appended
Enter the number alone.

change=G2H metric="protein stability index" value_measured=3.18
change=S8N metric="protein stability index" value_measured=4.34
change=G2I metric="protein stability index" value_measured=4.51
change=K16A metric="protein stability index" value_measured=3.7
change=D17P metric="protein stability index" value_measured=3.04

Input line: Quick check: protein stability index of R11I ?
Output line: 3.92

Input line: Quick check: protein stability index of A9C ?
Output line: 3.67

Input line: Quick check: protein stability index of E13I ?
Output line: 3.45

Input line: Quick check: protein stability index of R11D ?
Output line: 4.82

Input line: Quick check: protein stability index of E13Q ?
Output line: 4.04

Input line: Quick check: protein stability index of S14W ?
Output line: 2.81

Input line: Quick check: protein stability index of W18G ?
Output line: 5.21

Input line: Quick check: protein stability index of R6S ?
Output line: 4
